biological target: BDBV GP on rVSV particles (Bundibugyo virus (BDBV)); assay: cell-based or functional assay
Below, each of the binders is paired with its reported IC50 (nM), neutralization of rVSV-GP value.
parameter: IC50 (nM), neutralization of rVSV-GP

INSERT INTO results (binder, obsvalue) VALUES
  ('PE-87 G106A (antibody, V domains shown) VH: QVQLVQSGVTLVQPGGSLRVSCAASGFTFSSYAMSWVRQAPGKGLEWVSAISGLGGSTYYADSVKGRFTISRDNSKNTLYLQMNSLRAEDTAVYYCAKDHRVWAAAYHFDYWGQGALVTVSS VL: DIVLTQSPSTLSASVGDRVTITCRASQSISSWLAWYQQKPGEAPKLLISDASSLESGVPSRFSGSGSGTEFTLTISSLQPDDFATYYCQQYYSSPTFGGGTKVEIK', 0.4),
  ('PE-87 D110A (antibody, V domains shown) VH: QVQLVQSGVTLVQPGGSLRVSCAASGFTFSSYAMSWVRQAPGKGLEWVSAISGLGGSTYYADSVKGRFTISRDNSKNTLYLQMNSLRAEDTAVYYCAKDHRVWAAGYHFAYWGQGALVTVSS VL: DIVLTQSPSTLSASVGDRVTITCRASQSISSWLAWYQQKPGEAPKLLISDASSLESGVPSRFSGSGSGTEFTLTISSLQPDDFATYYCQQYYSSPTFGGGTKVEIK', 0.9),
  ('PE-87 H108A (antibody, V domains shown) VH: QVQLVQSGVTLVQPGGSLRVSCAASGFTFSSYAMSWVRQAPGKGLEWVSAISGLGGSTYYADSVKGRFTISRDNSKNTLYLQMNSLRAEDTAVYYCAKDHRVWAAGYAFDYWGQGALVTVSS VL: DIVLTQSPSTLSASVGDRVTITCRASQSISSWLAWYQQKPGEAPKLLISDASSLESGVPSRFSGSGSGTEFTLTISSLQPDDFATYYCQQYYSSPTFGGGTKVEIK', 0.6),
  ('PE-87 Y111A (antibody, V domains shown) VH: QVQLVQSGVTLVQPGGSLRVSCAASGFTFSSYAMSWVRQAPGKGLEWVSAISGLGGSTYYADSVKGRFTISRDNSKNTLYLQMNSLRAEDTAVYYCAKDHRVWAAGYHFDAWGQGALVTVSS VL: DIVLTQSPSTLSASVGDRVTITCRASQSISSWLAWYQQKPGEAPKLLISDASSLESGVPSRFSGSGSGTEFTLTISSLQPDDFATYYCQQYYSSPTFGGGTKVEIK', 0.4),
  ('PE-87 R101A (antibody, V domains shown) VH: QVQLVQSGVTLVQPGGSLRVSCAASGFTFSSYAMSWVRQAPGKGLEWVSAISGLGGSTYYADSVKGRFTISRDNSKNTLYLQMNSLRAEDTAVYYCAKDHAVWAAGYHFDYWGQGALVTVSS VL: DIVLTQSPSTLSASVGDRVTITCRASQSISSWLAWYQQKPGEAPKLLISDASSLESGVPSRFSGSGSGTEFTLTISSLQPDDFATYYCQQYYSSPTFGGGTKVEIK', 0.4),
  ('PE-87 H100A (antibody, V domains shown) VH: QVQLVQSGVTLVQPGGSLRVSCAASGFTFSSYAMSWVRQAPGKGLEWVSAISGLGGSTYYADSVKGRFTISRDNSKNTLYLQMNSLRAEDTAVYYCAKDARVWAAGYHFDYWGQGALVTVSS VL: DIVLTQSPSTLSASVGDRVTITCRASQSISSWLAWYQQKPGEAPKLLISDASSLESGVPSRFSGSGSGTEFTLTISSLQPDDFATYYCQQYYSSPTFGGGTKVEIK', 0.4),
  ('PE-87 Y107A (antibody, V domains shown) VH: QVQLVQSGVTLVQPGGSLRVSCAASGFTFSSYAMSWVRQAPGKGLEWVSAISGLGGSTYYADSVKGRFTISRDNSKNTLYLQMNSLRAEDTAVYYCAKDHRVWAAGAHFDYWGQGALVTVSS VL: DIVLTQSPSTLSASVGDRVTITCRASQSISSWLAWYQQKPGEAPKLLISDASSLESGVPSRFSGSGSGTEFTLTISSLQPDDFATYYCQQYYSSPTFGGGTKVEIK', 0.8);
